Source listed as PubChem BioAssay (NCI).

Tested on: K-562 leukemia
Experiment: NCI tumour cell line growth inhibition, 48 h
The reader will find reported TGI values listed item by item below.
VALUE_TYPE: TGI

# COMPOUND, MEASURED_RESULT
measured = [
    ("Cc1cc2c3c([n+](C)c4ccc(F)cc4c3c1)-c1cc(F)ccc1N2C", "> 100 µM"),
    ("COc1ccc(/C=C2\\CCC(C)c3c2nc(N)c(C#N)c3-c2ccc(OC)c(OC)c2)cc1OC (stereo not given)", "> 100 µM"),
    ("O=c1[nH]c2ccc(Cl)cc2o1", "> 100 µM"),
    ("Cc1ccc(-c2c3c(nn2-c2ccc(S(=O)(=O)NC(=O)NC4CCCCC4)cc2)-c2ccccc2C3)cc1", "13.5 µM"),
    ("NC(Cc1cccnn1)C(=O)O (stereo not given)", "> 100 µM"),
    ("C[C@]12CC(C=O)C(=O)C(O)=C1CC[C@@H]1C2CC[C@@]2(C)C1CC[C@]2(C)O (stereo not given in full)", "> 100 µM"),
    ("O=C1C(Cl)=C(Cl)C(=O)N1c1cccc(C(F)(F)F)c1", "> 100 µM"),
    ("O=C1c2ccn(CCCNC(CO)(CO)CO)c2C(=O)c2c1c(O)c1ccccc1c2O", "90.1 µM"),
    ("CC(C)c1[nH]nc2c(NCc3ccc(-c4ccccn4)cc3)nc(SCCN(C)C)nc12", "10.3 µM"),
    ("C/C(O)=C(\\C=NC(=S)c1cccnc1)C(=O)Nc1ccccc1C", "> 100 µM"),
]
